- Tested System: Probable G-protein coupled receptor 139 (Homo sapiens)
- Sequence (Q6DWJ6 whole entry): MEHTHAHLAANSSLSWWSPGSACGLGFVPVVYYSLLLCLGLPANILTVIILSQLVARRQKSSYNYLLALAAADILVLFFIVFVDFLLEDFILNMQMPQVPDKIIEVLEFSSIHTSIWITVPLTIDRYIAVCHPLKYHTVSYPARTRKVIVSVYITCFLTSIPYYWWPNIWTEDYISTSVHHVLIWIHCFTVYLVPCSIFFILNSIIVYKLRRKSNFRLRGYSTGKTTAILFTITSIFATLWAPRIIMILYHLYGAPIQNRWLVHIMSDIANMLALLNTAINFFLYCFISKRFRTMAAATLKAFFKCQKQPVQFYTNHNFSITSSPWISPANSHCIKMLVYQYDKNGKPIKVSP
- Experiment: Agonist activity at human GPR139 expressed in CHO-K1 cells assessed as increase in calcium flux by calcium 5 dye based FLIPR assay
- Assay type: functional, cell-based
- Run Conditions: cho-k1
Reported Metric: EC50 (nM)
Numeric only. Scale: nM

- Sample Smiles: "C[C@H](NC(=O)Cn1nc2ccccn2c1=O)c1ccc(OC(F)F)cc1"
  EC50 / nM: 1

# input compound: `CC[C@H](NC(=O)Cn1nc2cccnn2c1=O)c1ccc(Cl)c(F)c1` ; wanted: its EC50 1

Same thing, different compound: `C[C@H](NC(=O)Cn1nc2ccccn2c1=O)c1ccc(-c2ccccc2)cc1` 10

What do you have for `C[C@H](NC(=O)Cn1nc2cccnn2c1=O)c1ccc(Cl)c(Cl)c1` ? 1

Record: `C[C@H](NC(=O)Cn1nc2ncccn2c1=O)c1ccc(Cl)c(Cl)c1` 1

====

- Tested System: UniProt:Q6DWJ6
- Experiment: Agonist activity at human GPR139 expressed in CHO-K1 cells assessed as increase in calcium flux by calcium 5 dye based FLIPR assay relative to JNJ63533054
- Type: functional, cell-based
- Run Conditions: filed as agonist
Entries and their measured Emax follow.

- Compound: "C[C@H](NC(=O)Cn1nc2cc(N3CCOCC3)ccn2c1=O)c1ccc(OC(F)(F)F)cc1"
  Result: "> 80%"
- Compound: "CC(C(=O)N[C@@H](C)c1ccc(Cl)c(F)c1)n1nc2cccnn2c1=O (stereo in doubt; I-6-1)"
  Result: "> 80%"
- Compound: "Cc1ccc([C@H](C)NC(=O)Cn2nc3c(NCC(F)F)cccn3c2=O)cc1"
  Result: "> 80%"
- Compound: "COc1cnn2c(=O)n(CC(=O)N[C@@H](C)c3ccc(Cl)c(F)c3)nc2c1"
  Result: "> 80%"
- Compound: "C[C@H](NC(=O)Cn1nc2ccc(F)cn2c1=O)c1ccc(C(F)(F)F)cc1"
  Result: "> 80%"
- Compound: "C[C@H](NC(=O)Cn1nc2cc(NC3COC3)ccn2c1=O)c1ccc(Cl)c(F)c1"
  Result: "> 80%"
- Compound: "Cc1cnc2nn(CC(=O)N[C@@H](C)c3ccc(OC(F)(F)F)cc3)c(=O)n2c1"
  Result: "50%"
- Compound: "O=C(Cn1nc2ccc(F)cn2c1=O)NC1(c2ccc(Cl)cc2)CC1"
  Result: "> 80%"
- Compound: "C[C@H](NC(=O)Cn1nc2cccnn2c1=O)c1ccc(C2CC2)c(F)c1"
  Result: "> 80%"
- Compound: "CNc1cccn2c(=O)n(CC(=O)N[C@@H](C)c3ccc(C)cc3)nc12"
  Result: "> 80%"

Entry `C[C@H](NC(=O)Cn1nc2ccccn2c1=O)c1cncc(F)c1` has what Emax? 50%

Item: `C[C@H](NC(=O)Cn1nc2ccc(C3CC3)nn2c1=O)c1ccc(Cl)c(F)c1` > 80%

====

EC50 for assorted compounds
- Tested System: Probable G-protein coupled receptor 139 (Homo sapiens)
- Experiment: Agonist activity at human GPR139 expressed in CHO-K1 cells assessed as increase in calcium flux by calcium 5 dye based FLIPR assay
- Type: functional, cell-based
- Run Conditions: cho-k1
Give the number; nM is assumed, so skip it.

Here are 5 compounds together with their reported answers.
- Compound: "C[C@H](NC(=O)Cn1nc2cc(Cl)cnn2c1=O)c1ccc(OC(F)(F)F)cc1"
  Recorded Number: 1
- Compound: "C[C@H](NC(=O)Cn1nc2cnccn2c1=O)c1ccc(Cl)c(F)c1"
  Recorded Number: 1
- Compound: "C[C@H](NC(=O)Cn1nc2ccc(N3CCCCC3)nn2c1=O)c1ccc(OC(F)(F)F)cc1"
  Recorded Number: 10
- Compound: "C[C@H](NC(=O)Cn1nc2ccccn2c1=O)c1ccc(F)cc1"
  Recorded Number: 10
- Compound: "C[C@H](NC(=O)Cn1nc2ncccn2c1=O)c1ccc(OC(F)F)c(F)c1"
  Recorded Number: 10

Field: next compound
Query: EC50; subject: `C[C@H](NC(=O)Cn1nc2cccc(N3CCNCC3)n2c1=O)c1ccc(OC(F)(F)F)cc1` 10

====

- Tested System: UniProtKB Q6DWJ6
- Experiment: Agonist activity at human GPR139 expressed in CHO-K1 cells assessed as induction of beta-arrestin 2 recruitment incubated for 90 mins by PathHunter assay relative to JNJ63533054
- Type: cell-based
- Run Conditions: filed as agonist
Reported Metric: Emax

A selection of reference data follows.
- Sample Smiles: "Cc1ccc([C@H](C)NC(=O)Cn2nc3cccnn3c2=O)cc1Cl"
  Reported Metric: "Emax"
  Result: "> 80%"
- Sample Smiles: "C[C@H](NC(=O)Cn1nc2ccc(F)cn2c1=O)c1ccc(Cl)c(F)c1"
  Reported Metric: "Emax"
  Result: "> 80%"

Given `C[C@H](NC(=O)Cn1nc2c(NC3COC3)ccnn2c1=O)c1ccc(Cl)c(F)c1` , state its recorded Emax. > 80%

====

Reported Emax values follow for various molecules
- Tested System: Probable G-protein coupled receptor 139 (Homo sapiens) (UniProt Q6DWJ6)
- Sequence (whole entry): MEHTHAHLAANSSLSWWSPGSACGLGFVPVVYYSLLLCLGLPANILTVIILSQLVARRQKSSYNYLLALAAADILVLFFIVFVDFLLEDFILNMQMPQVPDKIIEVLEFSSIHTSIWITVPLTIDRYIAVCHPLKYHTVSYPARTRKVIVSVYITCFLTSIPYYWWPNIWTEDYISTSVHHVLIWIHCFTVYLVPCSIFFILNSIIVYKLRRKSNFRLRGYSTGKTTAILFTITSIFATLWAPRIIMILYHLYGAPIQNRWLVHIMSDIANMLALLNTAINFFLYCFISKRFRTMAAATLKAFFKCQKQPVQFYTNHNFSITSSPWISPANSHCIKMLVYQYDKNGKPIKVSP
- Experiment: Agonist activity at human GPR139 expressed in CHO-K1 cells assessed as induction of beta-arrestin 2 recruitment incubated for 90 mins by PathHunter assay relative to JNJ63533054
- Assay type: cell-based
- Run Conditions: filed as agonist

Here is how some molecules turned out for Emax.
- Sample Smiles: "CNc1cccn2c(=O)n(CC(=O)N[C@@H](C)c3ccc(C)cc3)nc12"
  Emax: "> 80%"
- Sample Smiles: "COc1cnn2c(=O)n(CC(=O)N[C@@H](C)c3ccc(Cl)c(F)c3)nc2c1"
  Emax: "> 80%"

Proceed to the following item.
Record lookup: for Probable G-protein coupled receptor 139 (Homo sapiens) (UniProt Q6DWJ6), what Emax belongs to `Cc1ccc([C@H](C)NC(=O)Cn2nc3ncccn3c2=O)cc1Cl` ? > 80%

====

- Tested System: Probable G-protein coupled receptor 139 (Homo sapiens)
- Sequence (whole entry): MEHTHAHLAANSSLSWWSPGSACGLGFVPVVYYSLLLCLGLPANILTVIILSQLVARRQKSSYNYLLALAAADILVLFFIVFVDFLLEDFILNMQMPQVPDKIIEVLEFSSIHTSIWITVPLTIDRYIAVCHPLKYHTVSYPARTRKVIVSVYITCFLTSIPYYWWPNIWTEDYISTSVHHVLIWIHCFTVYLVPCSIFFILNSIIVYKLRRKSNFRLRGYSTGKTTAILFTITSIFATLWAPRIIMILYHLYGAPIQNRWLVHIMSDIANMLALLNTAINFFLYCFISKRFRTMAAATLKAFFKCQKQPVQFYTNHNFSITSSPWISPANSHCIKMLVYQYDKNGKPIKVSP
- Experiment: Agonist activity at human GPR139 expressed in CHO-K1 cells assessed as induction of beta-arrestin 2 recruitment incubated for 90 mins by PathHunter assay relative to JNJ63533054
- Assay type: cell-based
- Run Conditions: filed as agonist
// reported Emax per item

Which measured Emax value corresponds to `C[C@H](NC(=O)Cn1nc2ccccn2c1=O)c1ccc(Cl)c(Cl)c1` ? > 80%

Another: `CNc1ccnn2c(=O)n(CC(=O)N[C@@H](C)c3ccc(Cl)c(F)c3)nc12` > 80%

And for `C[C@H](NC(=O)Cn1nc2cc(N3CCCCC3)ccn2c1=O)c1ccc(OC(F)(F)F)cc1` ? > 80%
